tested system: Metabotropic glutamate receptor 5 (Homo sapiens)
Sequence (P41594 whole entry): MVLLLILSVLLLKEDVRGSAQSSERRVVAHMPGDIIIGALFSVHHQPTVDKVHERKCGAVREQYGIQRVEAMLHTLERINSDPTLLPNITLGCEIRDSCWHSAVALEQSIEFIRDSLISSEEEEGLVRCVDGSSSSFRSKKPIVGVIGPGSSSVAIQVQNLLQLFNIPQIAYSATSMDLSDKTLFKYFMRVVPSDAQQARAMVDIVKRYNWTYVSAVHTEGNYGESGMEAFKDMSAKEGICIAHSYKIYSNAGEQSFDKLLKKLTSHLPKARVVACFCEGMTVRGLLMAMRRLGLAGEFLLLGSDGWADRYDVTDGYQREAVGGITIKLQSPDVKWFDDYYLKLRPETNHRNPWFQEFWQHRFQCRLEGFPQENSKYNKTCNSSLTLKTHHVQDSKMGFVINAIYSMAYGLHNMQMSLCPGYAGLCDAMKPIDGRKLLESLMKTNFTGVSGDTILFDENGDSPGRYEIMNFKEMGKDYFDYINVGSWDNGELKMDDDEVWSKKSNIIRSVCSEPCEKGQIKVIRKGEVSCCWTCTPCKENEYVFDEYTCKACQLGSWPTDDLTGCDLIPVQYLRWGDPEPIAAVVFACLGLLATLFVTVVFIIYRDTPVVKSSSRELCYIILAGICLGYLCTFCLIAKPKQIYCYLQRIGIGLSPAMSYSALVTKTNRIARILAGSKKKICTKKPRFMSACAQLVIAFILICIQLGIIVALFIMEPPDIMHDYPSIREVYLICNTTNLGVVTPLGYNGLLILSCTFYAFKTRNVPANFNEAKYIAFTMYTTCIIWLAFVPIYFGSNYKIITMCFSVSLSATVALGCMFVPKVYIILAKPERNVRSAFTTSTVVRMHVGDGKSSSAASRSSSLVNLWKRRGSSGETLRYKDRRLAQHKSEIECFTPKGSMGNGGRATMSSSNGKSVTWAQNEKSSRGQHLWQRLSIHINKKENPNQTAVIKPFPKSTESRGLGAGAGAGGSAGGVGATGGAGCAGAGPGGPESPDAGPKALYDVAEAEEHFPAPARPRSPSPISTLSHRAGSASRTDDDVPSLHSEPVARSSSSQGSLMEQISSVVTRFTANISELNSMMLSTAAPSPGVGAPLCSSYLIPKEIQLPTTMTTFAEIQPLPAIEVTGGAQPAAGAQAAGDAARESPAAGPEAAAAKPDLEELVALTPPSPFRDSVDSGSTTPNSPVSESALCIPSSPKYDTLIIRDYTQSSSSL
measurement description: In vitro potency against human recombinant mGlu5 receptor was determined by [Ca2+] flux assay using glutamate as agonist
measured quantity: IC50 (nM)
// return numeric value only (unit: nM, not printed)

Quickly give me recorded IC50 for Cc1nc(C#Cc2cncc(-c3cccnc3)c2)cs1
3

Quickly give me recorded IC50 for Cc1nc(C#Cc2ccc(-c3ccccn3)nc2)cs1
4

Quickly give me recorded IC50 for Cc1ccc(C#Cc2csc(C)n2)cc1
845
